// provenance: the supplement of paper PMC9170038

Test system: MS2 coat protein
Assay: apparent KD of MS2 coat protein, switch ON state; designed switch direction (-1 OFF switch, 1 ON switch): -1; higher = weaker reporter binding
Conditions: FMN input: 0 or 200 uM; Eterna round: R93 (includes R88 designs)
Entry class follows apparent KD of MS2 coat protein: lower bin = under 30 nM, middle bin = from 30 nM up to 50 nM, upper bin = 50 nM and over

Ask: # bin label for AACAGGAGAGGAUAUACAUGAGGAUCACCCAUGUAGGAAACAAGCAGAGUACCAAAAAGUAGAAGGCUCAUGGA [Ruby 32]
Reply: lower bin

Ask: # bin label for GAAGAACAUGAGGAUCACCCAUGUCAGGAUAUACAGAAGGGAAUAAUAUAAUCUGGAAGUAGAAGGGACAAGAA [Ex 1 May 45]
Reply: middle bin

Ask: # bin label for GGUUGACAAGGAUAUACAUGAGGAUCACCCAUGUGAGAGAAAAAAGUGAGAAAGAAAAGUAGAAGGUGUUGACG [salish99-ex3-62]
Reply: middle bin

Ask: # bin label for AGAAACGUAGGAUAUACAUGAGGAUCACCCAUGUAAAGAAAGAAGGGAGAAAGAAGAAGUAGAAGGACGAAGAA [JR_Exc003_Sub003]
Reply: lower bin
